Measured kinase still bound, per cent of control by item
molecular target: UniProt:O14965; test: KINOMEscan competition binding; settings: compound 10.0 µM
Sequence (O14965 whole entry, looked up): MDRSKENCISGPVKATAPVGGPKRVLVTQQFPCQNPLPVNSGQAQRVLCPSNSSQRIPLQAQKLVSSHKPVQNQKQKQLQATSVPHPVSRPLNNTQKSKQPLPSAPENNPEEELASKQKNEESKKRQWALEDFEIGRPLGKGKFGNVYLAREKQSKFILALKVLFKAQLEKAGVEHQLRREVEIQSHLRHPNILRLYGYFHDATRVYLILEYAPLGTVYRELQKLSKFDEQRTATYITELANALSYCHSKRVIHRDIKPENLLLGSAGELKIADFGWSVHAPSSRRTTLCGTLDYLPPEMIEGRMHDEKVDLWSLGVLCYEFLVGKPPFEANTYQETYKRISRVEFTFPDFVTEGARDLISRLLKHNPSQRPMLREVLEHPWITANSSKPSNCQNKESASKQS
Report the value in % with no unit label.

* O=C(NOC[C@H](O)CO)c1ccc(F)c(F)c1Nc1ccc(I)cc1F | 100
* CCOc1cc2ncc(C#N)c(Nc3ccc(OCc4ccccn4)c(Cl)c3)c2cc1NC(=O)/C=C/CN(C)C | 87
* C=CC(=O)Nc1cc(NC(=O)c2ccc(C)c(NC(=O)c3ccno3)c2)cc(C(F)(F)F)c1 | 95
* COc1cc(N2CCN(C)CC2)ccc1Nc1nc(N)c(C(=O)c2c(Cl)cccc2Cl)s1 | 100
* O=C(O)c1ccc(Nc2ncc3c(n2)-c2ccc(Cl)cc2C(c2c(F)cccc2F)=NC3)cc1 | 0.5

// next item, kinase still bound, per cent of control requested
IN: Any idea what kinase still bound, per cent of control was measured for O=C1Nc2ccc(I)cc2/C1=C/c1cc(Br)c(O)c(Br)c1 ?
OUT: 65
